These data points were gathered from patent US10765662B2.

- System: Vero cells
- assay_notes: in vitro
- Type: cell-based
- details: African green monkey
measure_name: CC50

Use these answered entries as a reference point.
{"columns": ["molecule", "target_or_test_system", "CC50"],
 "data": [
  ["COc1cc(NC(C(=O)c2c[nH]c3ccc(C(F)(F)F)cc23)c2ccc(Cl)cc2OCCO)cc(S(C)(=O)=O)c1 (single isomer, unassigned) [Compound 9B]", "Vero cells", "> 2400 nM"],
  ["COc1cc(NC(C(=O)c2c[nH]c3cc(F)c(C)cc23)c2ccc(Cl)cc2OCCO)cc(S(C)(=O)=O)c1 (single isomer, unassigned)", "Vero cells", "> 2400 nM"]
]}

Asked: Which measured CC50 belongs to COc1cc(NC(C(=O)c2c[nH]c3cc(OC)c(OC(F)(F)F)cc23)c2ccc(Cl)cc2OCCO)cc(S(C)(=O)=O)c1 (single isomer, unassigned) [Compound 11B] , tested on Vero cells?
Given back: > 2300 nM
